- experimental.details: NA (ETV, TFV) plasma PK (NCA) with coadministered bepirovirsen in the Phase 2b B-Clear study
- Format: in vivo
- condition.details: human, oral, 300 mg
- Procedure: NA plasma PK parameters were calculated using NCA methods with Phoenix WinNonlin Version 8.1.0.3530. PK parameters included Cmax, AUC from time zero to 24 hours after dosing, and plasma concentration at the end of the dosing interval. Calculations were based on the actual sampling times. […]
measurement.type: Cmax
Please append the unit to your numeric answer.

### Prompt Consider the compound C[C@H](Cn1cnc2c(N)ncnc21)OCP(=O)(O)O . State its measured Cmax.
### Response 319 ng/mL

* * *

- experimental.details: NA (ETV, TFV) plasma PK (NCA) with coadministered bepirovirsen in the Phase 2b B-Clear study
- Format: in vivo
- condition.details: human, oral, 0.5 mg, ETV 0.5 mg once daily with bepirovirsen, B-Clear, mean ± SD, read-out: Ctau
- Method: NA plasma PK parameters were calculated using NCA methods with Phoenix WinNonlin Version 8.1.0.3530. PK parameters included Cmax, AUC from time zero to 24 hours after dosing, and plasma concentration at the end of the dosing interval. Calculations were based on the actual sampling times. […]
measurement.type: concentration at 24 h (ng/mL)
The figure you give is taken to be in ng/mL; do not add the unit.

### Prompt Consider the molecule C=C1[C@H](CO)[C@@H](O)C[C@@H]1n1cnc2c(=O)[nH]c(N)nc21 [ETV, entecavir] . State its measured concentration at 24 h.
### Response 0.5

* * *

- experimental.details: NA (ETV, TFV) plasma PK (NCA) with coadministered bepirovirsen in the Phase 2b B-Clear study
- Assay type: in vivo
- condition.details: human, oral, TFV administered as TAF 25 mg once daily with bepirovirsen, B-Clear, mean ± SD, read-out: Ctau
- Experimental: NA plasma PK parameters were calculated using NCA methods with Phoenix WinNonlin Version 8.1.0.3530. PK parameters included Cmax, AUC from time zero to 24 hours after dosing, and plasma concentration at the end of the dosing interval. Calculations were based on the actual sampling times. […]
measurement.type: concentration at 24 h (ng/mL)
The figure you give is taken to be in ng/mL; do not add the unit.

### Prompt Consider the compound C[C@H](Cn1cnc2c(N)ncnc21)OCP(=O)(O)O . State its measured concentration at 24 h.
### Response 10.3

* * *

- experimental.details: NA (ETV, TFV) plasma PK (NCA) with coadministered bepirovirsen in the Phase 2b B-Clear study
- Type: in vivo
- condition.details: human, oral, 25 mg
measurement.type: Cmax (ng/mL)
The figure you give is taken to be in ng/mL; do not add the unit.

### Prompt Consider the compound C[C@H](Cn1cnc2c(N)ncnc21)OCP(=O)(O)O . State its measured Cmax.
### Response 19.4

* * *

- experimental.details: NA (ETV, TFV) plasma PK (NCA) with coadministered bepirovirsen in the Phase 2b B-Clear study
- Type: in vivo
- condition.details: human, oral, 300 mg, read-out: AUC0-24
measurement.type: AUC(0-t)

### Prompt Consider the compound C[C@H](Cn1cnc2c(N)ncnc21)OCP(=O)(O)O . State its measured AUC(0-t).
### Response 2750 ng·h/mL

* * *

- experimental.details: NA (ETV, TFV) plasma PK (NCA) with coadministered bepirovirsen in the Phase 2b B-Clear study
- Format: in vivo
- condition.details: human, oral, 25 mg, read-out: AUC0-24
measurement.type: AUC(0-t) (ng·h/mL)
The figure you give is taken to be in ng·h/mL; do not add the unit.

### Prompt Consider the compound C[C@H](Cn1cnc2c(N)ncnc21)OCP(=O)(O)O . State its measured AUC(0-t).
### Response 308

Origin of values: paper PMC11975176
